Experiment: NCI Yeast Anticancer Drug Screen. Data for the rad50EPP+ strain (AID 151);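 also: 0% = growth of vehicle-treated control cultures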
Settings: S. cerevisiae rad50 mutant strain, at 3.7 µM
About 79,000 compounds went through this panel and 15% of them were active in at least one assay; those are over-represented in the sample as a whole. Active and inactive are the calls of the source. Rule as the data show it: active = growth inhibition above about 70%; inactive = the rest.
Outcome (select one): class 1 for active, class 0 for inactive

Query block: Recorded test call requested for CCCCCCCCCCCCCCCCP(=O)(O)OCC(N)C(=O)O (stereo not drawn)
Result block: class 0

Query block: Assay result, entry O=C1C2CC(Cl)C(SSC3CC4C(=O)N(SC(Cl)(Cl)C(Cl)Cl)C(=O)C4CC3Cl)CC2C(=O)N1SC(Cl)(Cl)C(Cl)Cl (stereo not drawn) — outcome?
Result block: class 1

Query block: Lab log entry: C[N+](C)(C)CC1CCCC(C[N+](C)(C)C)C1=O (stereo not drawn) — outcome as called in the assay?
Result block: class 0

Query block: Please state the recorded outcome for this compound: O=[N+]([O-])c1ccc(N2CCC(CCCC3CCN(c4ccc([N+](=O)[O-])cc4[N+](=O)[O-])CC3)CC2)c([N+](=O)[O-])c1
Result block: class 0

Query block: Returns: the outcome recorded for OC(c1ccc(Br)cc1)C(Cl)(Cl)Cl (stereo not drawn) in this assay.
Result block: class 0

Query block: // return assay outcome for OC1CCCC2CCC[N-]C12.OC1CCCC2CCC[N-]C12.[O]=[V][OH] (stereo not drawn)
Result block: class 1

Query block: Which outcome did this test record for the compound CCS(=O)(=O)[O][Sn]([CH2]C)([CH2]C)[O]S(=O)(=O)CC ?
Result block: class 0

Query block: # lookup: test call for O=C(Nc1cc(Cl)ccc1Cl)C(Cl)(Cl)Cl
Result block: class 0

// provenance: PubChem BioAssay (NCI)
